- assay system: Cannabinoid receptor 2 (Rattus norvegicus)
- Sequence (Q9QZN9 whole entry): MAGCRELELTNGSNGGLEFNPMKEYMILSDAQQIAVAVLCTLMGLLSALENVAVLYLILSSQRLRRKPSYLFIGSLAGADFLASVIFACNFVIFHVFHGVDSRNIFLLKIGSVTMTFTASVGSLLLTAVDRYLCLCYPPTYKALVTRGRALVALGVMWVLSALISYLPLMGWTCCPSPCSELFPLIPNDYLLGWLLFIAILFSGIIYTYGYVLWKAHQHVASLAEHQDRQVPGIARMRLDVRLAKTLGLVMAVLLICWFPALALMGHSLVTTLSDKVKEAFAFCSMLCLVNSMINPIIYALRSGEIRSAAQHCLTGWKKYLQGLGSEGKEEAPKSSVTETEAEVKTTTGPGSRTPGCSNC
pKi: −log10 of the molar value.
Listing of recorded pKi by entry.
observed property: pKi

entry smiles	observed property	measured result
CCCCCn1cc(C(=O)NC23CC4CC(CC(C4)C2)C3)c(=O)n2nc(C)c(-c3ccccc3)c12	pKi	6.67
CCCCCn1cc(C(=O)NC23CC4CC(CC(C4)C2)C3)c(=O)n2nc(-c3ccccc3C)cc12	pKi	8.49
CCCCCn1cc(C(=O)NC2CCCCCC2)c(=O)n2nc(-c3ccc(Cl)cc3)cc12	pKi	8.19
CCCCCn1cc(C(=O)NC2CCCCC2)c(=O)n2nc(-c3ccc(Cl)cc3Cl)cc12	pKi	7.22
CCCCCn1cc(C(=O)NC2CCCCC2)c(=O)n2nc(C(C)(C)C)cc12	pKi	7.85
CCCCCn1cc(C(=O)NC2CCCCCC2)c(=O)n2nc(-c3ccc(Cl)cc3Cl)cc12	pKi	7.40
CCCCCn1cc(C(=O)NC23CC4CC(CC(C4)C2)C3)c(=O)n2nc(C)cc12	pKi	7.82
CCCCCn1cc(C(=O)NC23CC4CC(CC(C4)C2)C3)c(=O)n2nc(-c3ccc(Cl)cc3)cc12	pKi	8.38
CCCCCn1cc(C(=O)NC23CC4CC(CC(C4)C2)C3)c(=O)n2nc(C)c(Br)c12	pKi	6.57

----------
- assay system: Cannabinoid receptor 1 (Rattus norvegicus) (UniProt P20272)
- Sequence (P20272 whole entry): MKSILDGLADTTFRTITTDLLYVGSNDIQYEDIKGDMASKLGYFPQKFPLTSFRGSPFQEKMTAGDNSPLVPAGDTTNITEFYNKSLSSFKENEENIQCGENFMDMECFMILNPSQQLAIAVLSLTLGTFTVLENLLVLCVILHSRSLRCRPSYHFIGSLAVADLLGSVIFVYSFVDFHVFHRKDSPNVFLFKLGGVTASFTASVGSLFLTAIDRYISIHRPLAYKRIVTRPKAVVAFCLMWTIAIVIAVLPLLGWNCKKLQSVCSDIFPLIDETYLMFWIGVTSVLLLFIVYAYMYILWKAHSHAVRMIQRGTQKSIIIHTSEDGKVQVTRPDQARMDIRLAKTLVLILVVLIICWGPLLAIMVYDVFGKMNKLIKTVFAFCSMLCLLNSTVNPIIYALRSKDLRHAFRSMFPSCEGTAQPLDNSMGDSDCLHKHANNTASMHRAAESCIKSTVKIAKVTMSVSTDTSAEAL
- test name: Displacement of [3H]CP-55940 from Sprague-Dawley rat brain CB1 receptor at > 10 uM after 90 mins by scintillation counting analysis
observed property: Activity (%)

entry smiles	scale unit	measured result
CCCCCn1cc(C(=O)NC23CC4CC(CC(C4)C2)C3)c(=O)n2nc(-c3ccc(Cl)cc3)cc12	%	10
CCCCCn1cc(C(=O)NC2CCCCC2)c(=O)n2nc(-c3ccc(Cl)cc3Cl)cc12	%	47
CCCCCn1cc(C(=O)NC23CC4CC(CC(C4)C2)C3)c(=O)n2nc(-c3ccccc3Cl)cc12	%	48
CCCCCn1cc(C(=O)NC2CCCCCC2)c(=O)n2nc(-c3ccc(Cl)cc3)cc12	%	47
CCCCCn1cc(C(=O)NC2CCCCCC2)c(=O)n2nc(-c3ccc(Cl)cc3Cl)cc12	%	49

----------
The following molecules have recorded Ki on Cannabinoid receptor 1 (Homo sapiens, UniProt P21554).
Sequence (P21554 whole entry): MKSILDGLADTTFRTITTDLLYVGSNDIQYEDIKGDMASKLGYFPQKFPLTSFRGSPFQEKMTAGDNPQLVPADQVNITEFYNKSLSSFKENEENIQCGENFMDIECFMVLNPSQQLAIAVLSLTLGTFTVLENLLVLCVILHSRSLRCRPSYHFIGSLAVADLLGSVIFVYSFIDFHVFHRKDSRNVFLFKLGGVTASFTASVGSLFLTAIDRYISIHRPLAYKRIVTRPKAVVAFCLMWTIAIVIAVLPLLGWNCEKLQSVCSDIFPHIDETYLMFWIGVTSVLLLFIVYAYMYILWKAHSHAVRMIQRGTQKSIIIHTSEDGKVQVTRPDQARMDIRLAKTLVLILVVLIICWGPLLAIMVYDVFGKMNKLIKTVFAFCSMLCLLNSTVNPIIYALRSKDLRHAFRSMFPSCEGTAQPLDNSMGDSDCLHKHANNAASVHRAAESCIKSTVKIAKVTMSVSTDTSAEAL

entry smiles	Ki
CCCCCn1cc(C(=O)NC23CC4CC(CC(C4)C2)C3)c(=O)n2nc(-c3ccc(C)cc3)cc12	> 10 µM
CCCCCn1cc(C(=O)NC2CCCCCC2)c(=O)n2nc(-c3ccc(Cl)cc3)cc12	> 10 µM
CCCCCn1cc(C(=O)NC23CC4CC(CC(C4)C2)C3)c(=O)n2nc(-c3cc(C)cs3)cc12	> 10 µM

----------
- Species: Homo sapiens
- test name: Selectivity index, ratio of Ki for human CB1 receptor to Ki for human CB2 receptor

entry smiles	Ratio Ki
CCCCCn1cc(C(=O)NC2CCCCCC2)c(=O)n2nc(-c3ccccc3C)cc12	> 1120
CCCCCn1cc(C(=O)NC23CC4CC(CC(C4)C2)C3)c(=O)n2nc(-c3ccccc3C)cc12	> 3500
CCCCCn1cc(C(=O)NC2CCCCCC2)c(=O)n2nc(-c3ccc(Cl)cc3Cl)cc12	> 270
CCCCCn1cc(C(=O)NC2CCCCC2)c(=O)n2nc(-c3ccccc3)cc12	17

----------
- Species on record: Homo sapiens
- test name: Selectivity index, ratio of Ki for human CB1 receptor to Ki for human CB2 receptor
Catalogue of Ratio Ki values

entry smiles	rel	Ratio Ki
CCCCCn1cc(C(=O)NC2CCCCC2)c(=O)n2nc(CC)cc12	=	40
CCCCCn1cc(C(=O)NC23CC4CC(CC(C4)C2)C3)c(=O)n2nc(-c3ccoc3)cc12	>	990
CCCCCn1cc(C(=O)NC23CC4CC(CC(C4)C2)C3)c(=O)n2nc(C)cc12	=	88
CCCCCn1cc(C(=O)NC2CCCCCC2)c(=O)n2nc(-c3ccccc3)cc12	=	27
CCCCCn1cc(C(=O)NC23CC4CC(CC(C4)C2)C3)c(=O)n2nc(C(C)(C)C)cc12	=	124
CCCCCn1cc(C(=O)NC2CCCCCC2)c(=O)n2nc(C)cc12	=	51
CCCCCn1cc(C(=O)NC2CCCCCC2)c(=O)n2nc(-c3ccc(Cl)cc3)cc12	>	1580
CCCCCn1cc(C(=O)NC23CC4CC(CC(C4)C2)C3)c(=O)n2nc(C)c(-c3ccc(OC)cc3)c12	>	28
CCCCCn1cc(C(=O)NC2CCCCC2)c(=O)n2nc(-c3ccccc3Cl)cc12	>	212
CCCCCn1cc(C(=O)NC2CCCCCC2)c(=O)n2nc(CC)cc12	=	38
CCCCCn1cc(C(=O)NC2CCCCC2)c(=O)n2nc(-c3ccc(Cl)cc3Cl)cc12	>	192

----------
Quick record of Ki values for Cannabinoid receptor 1 (Homo sapiens).
observed property: Ki

entry smiles	observed property	measured result
CCCCCn1cc(C(=O)NC2CCCCC2)c(=O)n2nc(-c3ccccc3)cc12	Ki	0.702 µM
CCCCCn1cc(C(=O)NC2CCCCCC2)c(=O)n2nc(-c3ccccc3Cl)cc12	Ki	> 10 µM
CCCCCn1cc(C(=O)NC2CCCCC2)c(=O)n2nc(-c3ccc(Cl)cc3Cl)cc12	Ki	> 10 µM
CCCCCn1cc(C(=O)NCc2ccccc2)c(=O)n2nc(C)cc12	Ki	3.29 µM
CCCCCn1cc(C(=O)NC2CCCCC2)c(=O)n2nc(-c3ccc(Cl)cc3)cc12	Ki	> 10 µM
CCCCCn1cc(C(=O)NC2CCCCCC2)c(=O)n2nc(C(C)(C)C)cc12	Ki	0.605 µM
CCCCCn1cc(C(=O)NC23CC4CC(CC(C4)C2)C3)c(=O)n2nc(-c3ccccc3)cc12	Ki	> 10 µM
CCCCCn1cc(C(=O)NC23CC4CC(CC(C4)C2)C3)c(=O)n2nc(C)c(-c3ccccc3)c12	Ki	> 10 µM
CCCCCn1cc(C(=O)NC2CCCCC2)c(=O)n2nc(-c3ccccc3Cl)cc12	Ki	> 10 µM
CCCCCn1cc(C(=O)NC23CC4CC(CC(C4)C2)C3)c(=O)n2nc(-c3ccco3)cc12	Ki	> 10 µM
CCCCCn1cc(C(=O)NC23CC4CC(CC(C4)C2)C3)c(=O)n2nc(-c3cccs3)cc12	Ki	> 10 µM
CCCCCn1cc(C(=O)NC2CCCCC2)c(=O)n2nc(-c3ccco3)cc12	Ki	> 10 µM
CCCCCn1cc(C(=O)NC23CC4CC(CC(C4)C2)C3)c(=O)n2nc(CC)cc12	Ki	0.12 µM
CCCCCn1cc(C(=O)NC2CCCCCC2)c(=O)n2nc(-c3ccc(Cl)cc3Cl)cc12	Ki	> 10 µM
CCCCCn1cc(C(=O)NC23CC4CC(CC(C4)C2)C3)c(=O)n2nc(C)cc12	Ki	1.12 µM
CCCCCn1cc(C(=O)NC23CC4CC(CC(C4)C2)C3)c(=O)n2nc(-c3ccc(Cl)cc3Cl)cc12	Ki	> 10 µM
CCCCCn1cc(C(=O)NC23CC4CC(CC(C4)C2)C3)c(=O)n2nc(-c3ccccc3C)cc12	Ki	> 10 µM
CCCCCn1cc(C(=O)NC2CCCCC2)c(=O)n2nc(-c3ccc(C)cc3)cc12	Ki	> 10 µM
CCCCCn1cc(C(=O)NC23CC4CC(CC(C4)C2)C3)c(=O)n2nc(-c3c(Cl)cccc3Cl)cc12	Ki	> 10 µM

----------
Target or system Cannabinoid receptor 1 (Rattus norvegicus, UniProt P20272): recorded Ki listed per item.

entry smiles	assay system	Ki
CCCCCn1cc(C(=O)NC23CC4CC(CC(C4)C2)C3)c(=O)n2nc(-c3ccc(Cl)cc3Cl)cc12	Cannabinoid receptor 1 (Rattus norvegicus, UniProt P20272)	> 10 µM
CCCCCn1cc(C(=O)NC2CCCCC2)c(=O)n2nc(-c3ccc(C)cc3)cc12	Cannabinoid receptor 1 (Rattus norvegicus, UniProt P20272)	> 10 µM
CCCCCn1cc(C(=O)NC23CC4CC(CC(C4)C2)C3)c(=O)n2nc(-c3ccco3)cc12	Cannabinoid receptor 1 (Rattus norvegicus, UniProt P20272)	> 10 µM

----------
Activity: recorded values
- assay system: Cannabinoid receptor 2 (Homo sapiens)
- Sequence (P34972 whole entry): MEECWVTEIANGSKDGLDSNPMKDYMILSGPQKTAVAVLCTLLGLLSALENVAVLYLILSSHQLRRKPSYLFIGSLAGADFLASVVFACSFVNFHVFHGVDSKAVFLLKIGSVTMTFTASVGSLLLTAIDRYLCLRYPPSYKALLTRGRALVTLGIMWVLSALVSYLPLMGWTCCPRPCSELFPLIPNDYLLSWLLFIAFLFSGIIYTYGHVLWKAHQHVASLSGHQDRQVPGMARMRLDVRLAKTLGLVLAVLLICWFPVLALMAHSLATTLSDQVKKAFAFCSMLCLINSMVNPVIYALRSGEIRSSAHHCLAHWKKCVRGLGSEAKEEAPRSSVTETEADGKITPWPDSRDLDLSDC
- test name: Inverse agonist activity at human CB2 receptor expressed in CHO cell membrane assessed as increase in forskolin-stimulated cAMP production at 10 uM by scintillation counting analysis relative to WIN55212-2
observed property: Activity (%)

entry smiles	measured result
CCCCCn1cc(C(=O)NC2CCCCC2)c(=O)n2nc(-c3ccc(C)cc3)cc12	93
CCCCCn1cc(C(=O)NC23CC4CC(CC(C4)C2)C3)c(=O)n2nc(C)c(Br)c12	48
CCCCCn1cc(C(=O)NC23CC4CC(CC(C4)C2)C3)c(=O)n2nc(-c3c(Cl)cccc3Cl)cc12	62
